- test.method.notes: AUC (0 to 24 hrs) in fed cynomolgus monkey at 5 mg/kg, po after 24 hrs by HPLC
- Assay type: ADME, organism-based, Macaca fascicularis
- Design: time < 24 hr, dose 5 mg/kg, route oral
- study.conditions: plasma
recorded.endpoint: AUC(0-t) at 24 h

- CCc1ccc(C(CC)(CC)NC(=O)c2c(C)nn3c2N[C@@H](c2ccccc2)CC3(C)C)cc1.Cc1ccc(S(=O)(=O)O)cc1: 352 ng·h/mL
- CCC(CC)(NC(=O)c1c(C)nn2c1N[C@@H](c1ccccc1)CC2(C)C)c1ccc(C(C)O)cc1 (stereo partly drawn): 241 ng·h/mL
- CCC(CC)(NC(=O)c1c(C)nn2c1N[C@@H](c1ccccc1)CC2(C)C)c1ccc(C(C)=O)cc1: 228 ng·h/mL

---

- test.method.notes: Metabolic stability in rat liver microsome after 20 mins by HPLC in presence of NADPH
- Format: ADME
- study.conditions: liver microsomes, read-out: Stability
# microsomal CLint values compiled below
recorded.endpoint: microsomal CLint (µL/min/mg)

- CCc1nn2c(c1C(=O)NC(CC)(CC)c1ccc(C)cc1)NC(c1ccccc1)CC2(C)C.Cl (racemic): 191
- CCC(CC)(NC(=O)c1c(C)nn2c1NC(c1ccccc1)CC2(C)C)c1ccc(C)cc1.Cl (racemic): 213
- CCC(CC)(NC(=O)c1c(C)nn2c1N[C@@H](c1ccccc1)CC2(C)C)c1ccc(C(C)C)cc1: 96
- CCC(CC)(NC(=O)c1c(C)nn2c1N[C@@H](c1ccccc1)CC2(C)C)c1ccccc1: 231
- CCC(CC)(NC(=O)c1c(C)nn2c1N[C@@H](c1ccccc1)CC2(C)C)c1ccc(C)cc1.Cl: 216
- CCC(CC)(NC(=O)c1c(C)nn2c1N[C@@H](c1ccccc1)CC2(C)C)c1ccc(OC)c(Cl)c1: 136
- CCc1ccc(C(CC)(CC)NC(=O)c2c(C)nn3c2N[C@@H](c2ccccc2)CC3(C)C)cc1.Cl: 170
- CCC(CC)(NC(=O)c1c(C)nn2c1N[C@@H](c1ccccc1)CC2(C)C)c1ccc(OC)cc1: 239
- CCC(CC)(NC(=O)c1c(C)nn2c1N[C@@H](c1ccccc1)CC2(C)C)c1ccc(OC)c(F)c1.Cl: 210
- CCC(CC)(NC(=O)c1cnn2c1N[C@@H](c1ccccc1)CC2(C)C)c1ccc(C)cc1.Cl: 144

---

- test.method.notes: Plasma concentration in cynomolgus monkey at 5 mg/kg, po measured after 7th repeated dose measured after 1 hr by HPLC
- Assay type: ADME, organism-based, Macaca fascicularis
- Design: dose 5 mg/kg, route oral
recorded.endpoint: concentration at 1 h

* CCC(CC)(NC(=O)c1c(C)nn2c1N[C@@H](c1ccccc1)CC2(C)C)c1ccc(C)cc1.Cl | 28.2 ng/mL

---

- test.method.notes: Chemical stability of the compound assessed as residual ratio by HPLC
- Type: physicochemical
recorded.endpoint: Stability (%)

- CCC(CC)(NC(=O)c1c(C)nn2c1N[C@@H](c1ccccc1)CC2(C)C)c1ccc(C)cc1.Cl: 101.7
- CCc1ccc(C(CC)(CC)NC(=O)c2c(C)nn3c2N[C@@H](c2ccccc2)CC3(C)C)cc1.Cl: 85.5
- CCc1ccc(C(CC)(CC)NC(=O)c2c(C)nn3c2N[C@@H](c2ccccc2)CC3(C)C)cc1.O=S(=O)(O)c1ccccc1: 98.9
- CCc1ccc(C(CC)(CC)NC(=O)c2c(C)nn3c2N[C@@H](c2ccccc2)CC3(C)C)cc1.Cc1ccc(S(=O)(=O)O)cc1: 99.1
- CCC(CC)(NC(=O)c1cnn2c1N[C@@H](c1ccccc1)CC2(C)C)c1ccc(C)cc1.Cl: 52.1
